System: MCF7
Measurement description: Cytotoxicity against human MCF7 cells expressing Oct4-GFP assessed as reduction in cell viability after 72 hrs by CCK-8 assay
Type: functional, cell-based
Measurement setup: MCF7, 72 h
Attribute measured: IC50 (µM)
Please give a number only; it is taken to be in µM.

Lookup result for COc1ccc(Cc2nc(/N=C3\NC(=O)N(C)C3=O)n(C)c2Cc2ccc(OC)c(OC)c2O)cc1 ; measured IC50: 10

* * *

Test system: PC-9
Measurement description: Cytotoxicity against human PC9 cells assessed as reduction in cell viability after 72 hrs by CCK-8 assay
Assay type: functional, cell-based
Measurement setup: PC-9, 72 h
Attribute measured: IC50

CC(=O)O[C@H]1C(=O)[C@@]2(C)[C@H]([C@H](OC(=O)c3ccccc3)[C@]3(O)C[C@H](OC(=O)[C@H](O)[C@@H](NC(=O)c4ccccc4)c4ccccc4)C(C)=C1C3(C)C)[C@]1(OC(C)=O)CO[C@@H]1C[C@@H]2O 0.0027 µM
CNC1=N/C(=N/c2nc(Cc3ccc4c(c3)OCO4)cn2C)C(=O)O1 > 20 µM
COc1ccc(C2=C3C(=NC(=N)N3C)C(=O)c3c(OC)ccc(OC)c32)cc1 > 20 µM

Lookup result for CN/C(N)=N\C(=O)Nc1nc(Cc2ccc3c(c2)OCO3)cn1C ; measured IC50: > 20 µM

Lookup result for COc1ccc(Cc2nc(/N=C3\NC(=O)N(C)C3=O)n(C)c2Cc2ccc(OC)c(OC)c2O)cc1 ; measured IC50: 5.6 µM
